The reported measurements were obtained from patent US20250270315A1.

# systemName: T1, human SIRPβ stably expressed on CHOK1 cells (human, UniProt O00241 30-398)
# T1 construct: whole, on cells; also called CHOK1-human SIRPB; CHOK1-hSIRPβ
# T1 sequence (O00241 30-398): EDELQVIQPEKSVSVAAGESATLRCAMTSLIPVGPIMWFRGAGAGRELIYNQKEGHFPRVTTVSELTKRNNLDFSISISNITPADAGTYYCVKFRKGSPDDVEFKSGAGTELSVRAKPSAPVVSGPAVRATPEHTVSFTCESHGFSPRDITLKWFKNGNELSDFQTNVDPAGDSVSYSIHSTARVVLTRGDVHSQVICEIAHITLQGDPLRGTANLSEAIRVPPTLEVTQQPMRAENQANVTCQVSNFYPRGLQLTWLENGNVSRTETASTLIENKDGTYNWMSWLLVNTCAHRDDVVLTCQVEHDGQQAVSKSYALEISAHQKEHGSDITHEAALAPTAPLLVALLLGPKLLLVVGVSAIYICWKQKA
# assayProcedure: FACS, CHOK1-hSIRPβ cells (columns c6 and c7 read as swapped)
measuredEndpoint: EC50
Answer with the figure and its unit, nothing else.

025c (antibody, V domains shown, also called chimeric antibody 025c; parental antibody of 025c) VH: EVQLQQSGAELVKPGASVKLSCTASGFNIKDYYMHWVKQRTEQGLEWIGRIDPEDGETKYAPKFQGKATITADTSSNTAYLQLSSLTSEDTAVYYCDRGLAYWGQGTLVTVSA VL: QIVLTQSPAIMSASPGEKVTLTCSASSSVSSSYLYWYQQKPGSSPKLWIYSTSNLASGVPARFSGSGSGTSYSLTISSMEAEDAASYFCHQWSSYPYTFGGGTKLEIK    0.65 nM
hu025.060 (antibody, V domains shown, Humanized 025; also called hu025.60) VH: EVQLVQSGAEVKKPGATVKISCKASGFNIKDYYMHWVQQAPGKGLEWIGRIDPEDAETKYAPKFQGRVTITADTSTNTAYMELSSLRSEDTAVYYCDRGLAYWGQGTLVTVSS VL: EIVLTQSPATLSLSPGERATLSCSASSSVSSSYLYWYQQKPGQAPKLWIYSTSNLASGIPARFSGSGSGTDFTLTISSLEPEDFAVYYCHQWSSYPYTFGQGTKLEIK    0.75 nM

[Q] Assign EC50 to the following record: hu025.033 (antibody, V domains shown, Humanized 025) VH: EVQLVQSGAEVKKPGATVKISCKVSGFNIKDYYMHWVQQAPGKGLEWIGRIDPEDAETKYAPKFQGRVTITADTSTDTAYMELSSLRSEDTAVYYCDRGLAYWGQGTLVTVSS VL: EIVLTQSPATLSLSPGERATLSCSASSSVSSSYLYWYQQKPGQAPKLWIYSTSNLASGIPARFSGSGSGTDYTLTISSLEPEDFAVYYCHQWSSYPYTFGQGTKLEIK
[A] 0.8 nM
